Each recorded value in this set is attributed to the emibetuzumab library of Makowski et al. (2022).

B1: VH:VL chains; a variant is named by its letters at X, in order (parent)
chain 1: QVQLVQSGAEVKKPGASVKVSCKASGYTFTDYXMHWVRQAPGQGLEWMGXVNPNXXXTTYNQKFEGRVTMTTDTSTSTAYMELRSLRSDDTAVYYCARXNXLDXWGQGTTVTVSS
chain 2: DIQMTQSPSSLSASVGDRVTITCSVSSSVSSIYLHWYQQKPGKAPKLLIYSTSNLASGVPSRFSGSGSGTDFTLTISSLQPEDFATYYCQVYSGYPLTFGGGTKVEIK

Variants of: B1
assayExplanation: yeast display scFab, FACS + sequencing
testContext: with MET
This is one part of the list. How many sequences the whole screen found active is unknown.
reportedEndpoint: antigen binding call

Example entries begin here.
YTRGASWV no binding
YARADSGD no binding
YRRGGSLS binds
DARGGSLS no binding

# batch: return antigen binding call for each of the 4 variants below
1. YRGGASWV
2. VAGTGDWD
3. DEGRSVAA
4. VTGANDWV

stdout:
1. binds
2. no binding
3. no binding
4. no binding

# batch: return antigen binding call for each of the 3 variants below
1. VTKETFSF
2. VEKGGDGV
3. YKRGDSGF

stdout:
1: no binding; 2: no binding; 3: binds

# batch: return antigen binding call for each of the 3 variants below
1. DEGGTSLD
2. DREEGAGS
3. YAARASGF

stdout:
1. no binding
2. no binding
3. no binding

Data point: VTEENDGY ; antigen binding call = no binding
